Origin of values: ChEMBL document CHEMBL1165977

test system: Cavia porcellus; experiment: Toxicity in guinea pig assessed as death at 0.16 ml/min, iv up to 90 mins; type: organism-based; details: in vivo, 1.5 h
measured.quantity: Activity

C[C@H]1C[C@@H]2[C@H](CC[C@]3(C)C(=O)CC[C@@H]23)[C@@]2(C)CC/C(=N\OCCN)C[C@H]12.Cl; Non-toxic
CO/N=C1\C[C@@H]2[C@H](CC[C@]3(C)C(=O)CC[C@@H]23)[C@@]2(C)CC/C(=N\OCCN)C[C@H]12.Cl; Non-toxic
C[C@]12CC/C(=N\O[C@@H]3CCNC3)C[C@@H]1[C@@H](C(N)=O)C[C@@H]1[C@@H]2CC[C@]2(C)C(=O)CC[C@@H]12.Cl; Non-toxic
